The measured values listed here are drawn from patent US20250084056A1.

# Lookup of reported Ratio of GSPT1 DC50/Cyclin E1 DC50 keyed by entry
assayedTarget: Cyclin E1 (Homo sapiens, UniProt P24864+Q96SW2)
Sequence (P24864 whole entry): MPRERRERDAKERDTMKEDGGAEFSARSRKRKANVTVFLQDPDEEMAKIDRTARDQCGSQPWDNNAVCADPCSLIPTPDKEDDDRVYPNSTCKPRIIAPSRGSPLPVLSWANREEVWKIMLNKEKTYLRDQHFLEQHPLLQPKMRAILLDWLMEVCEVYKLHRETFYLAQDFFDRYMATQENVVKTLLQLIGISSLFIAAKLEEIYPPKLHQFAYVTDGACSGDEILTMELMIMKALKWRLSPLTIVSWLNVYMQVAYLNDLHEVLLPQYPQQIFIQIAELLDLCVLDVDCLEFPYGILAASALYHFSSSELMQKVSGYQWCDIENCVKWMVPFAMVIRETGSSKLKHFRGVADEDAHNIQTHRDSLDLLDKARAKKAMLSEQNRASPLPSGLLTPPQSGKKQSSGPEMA
Sequence (Q96SW2 whole entry): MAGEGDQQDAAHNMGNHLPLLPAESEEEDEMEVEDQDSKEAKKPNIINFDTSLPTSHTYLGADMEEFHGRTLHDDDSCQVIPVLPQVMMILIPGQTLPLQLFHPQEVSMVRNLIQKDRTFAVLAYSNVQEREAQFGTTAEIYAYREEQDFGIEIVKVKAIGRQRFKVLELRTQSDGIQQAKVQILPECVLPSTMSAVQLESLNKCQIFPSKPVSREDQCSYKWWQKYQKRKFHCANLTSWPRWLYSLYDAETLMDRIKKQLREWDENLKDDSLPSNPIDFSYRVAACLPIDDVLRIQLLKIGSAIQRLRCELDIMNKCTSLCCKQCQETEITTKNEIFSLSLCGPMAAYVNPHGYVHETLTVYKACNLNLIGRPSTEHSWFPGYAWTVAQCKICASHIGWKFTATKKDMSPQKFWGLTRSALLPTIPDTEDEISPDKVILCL
Sequence (Q16531 whole entry partner): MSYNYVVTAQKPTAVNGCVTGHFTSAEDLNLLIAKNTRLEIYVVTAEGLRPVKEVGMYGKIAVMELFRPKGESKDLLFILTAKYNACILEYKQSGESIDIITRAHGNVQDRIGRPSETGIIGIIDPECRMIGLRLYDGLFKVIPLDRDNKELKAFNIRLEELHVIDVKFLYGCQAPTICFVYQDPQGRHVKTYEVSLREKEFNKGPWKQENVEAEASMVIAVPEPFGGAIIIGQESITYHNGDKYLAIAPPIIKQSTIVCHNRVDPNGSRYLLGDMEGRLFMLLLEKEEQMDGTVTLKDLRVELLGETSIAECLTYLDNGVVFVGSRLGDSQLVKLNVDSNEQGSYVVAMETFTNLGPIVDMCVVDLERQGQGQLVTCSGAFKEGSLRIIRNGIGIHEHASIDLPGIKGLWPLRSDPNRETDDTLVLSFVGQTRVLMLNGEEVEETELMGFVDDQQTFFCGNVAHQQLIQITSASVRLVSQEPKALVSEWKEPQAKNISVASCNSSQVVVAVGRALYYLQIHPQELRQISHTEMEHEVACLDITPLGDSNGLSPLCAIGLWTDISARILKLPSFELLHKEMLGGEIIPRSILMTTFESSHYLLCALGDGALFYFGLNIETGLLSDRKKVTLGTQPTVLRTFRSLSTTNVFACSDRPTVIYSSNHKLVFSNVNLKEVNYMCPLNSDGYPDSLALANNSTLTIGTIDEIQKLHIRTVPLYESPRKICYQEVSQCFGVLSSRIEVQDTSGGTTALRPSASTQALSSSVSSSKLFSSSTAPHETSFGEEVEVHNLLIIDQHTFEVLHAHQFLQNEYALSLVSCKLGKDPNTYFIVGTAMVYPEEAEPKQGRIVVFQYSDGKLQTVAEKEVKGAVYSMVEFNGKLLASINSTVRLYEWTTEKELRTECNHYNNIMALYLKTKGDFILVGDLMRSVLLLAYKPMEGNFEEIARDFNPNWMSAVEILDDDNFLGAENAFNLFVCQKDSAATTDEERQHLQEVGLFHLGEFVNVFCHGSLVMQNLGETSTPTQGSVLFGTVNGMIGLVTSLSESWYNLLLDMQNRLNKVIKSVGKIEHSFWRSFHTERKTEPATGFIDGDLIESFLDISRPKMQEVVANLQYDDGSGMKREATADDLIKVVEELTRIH
methodSummary: Cyclin E1 Cellular Degradation Assay (MSD)
Type: cell-based
Set-up: endogenous in cells; host or cells: OVCAR3
conditionLabel: selectivity for degradation of Cyclin E1 over GSPT1
Protocol: Culturing cells: On Day 0, OVCAR3 cells were plated at 15,000 cells/well in 40 μL of culture medium (RPMI1640, 20% FBS, 0.01 insulin, 1% Anti/Anti) in a 384 well cell culture plate. Cell cultures were incubated for 24 hours at 37° C. and 5% CO2. […] Collecting data: After thawing, 25 μL of lysate was transferred to a coated MSD plate. […] After the final wash, 35 μL of 1× Read Buffer (MSD R92TC-1) was added to each well and the data was captured using the MSD plate reader. […]

>  <compound>
O=C1CCC(N2Cc3ccc(COC(=O)Nc4ccc(Oc5ccc(F)cc5F)cc4F)c(OC4CCOCC4)c3C2=O)C(=O)N1 (stereo not shown) [Example 136]

>  <assayedTarget>
Cyclin E1 (Homo sapiens, UniProt P24864+Q96SW2)

>  <val>
>368

$$$$
>  <compound>
COc1c(COC(=O)Nc2ccc(Oc3ccc(Cl)c(F)c3)cc2)ccc2c1C(=O)N(C1CCC(=O)NC1=O)C2 (stereo not shown) [Example 71]

>  <assayedTarget>
Cyclin E1 (Homo sapiens, UniProt P24864+Q96SW2)

>  <val>
>58

$$$$
>  <compound>
CC(C)Oc1c(COC(=O)Nc2ccc(Oc3ccc(F)c(F)c3)cc2F)ccc2c1C(=O)N(C1CCC(=O)NC1=O)C2 (stereo not shown) [Example 119]

>  <assayedTarget>
Cyclin E1 (Homo sapiens, UniProt P24864+Q96SW2)

>  <val>
>120

$$$$
>  <compound>
COc1cc(Oc2ccc(F)cc2F)ccc1NC(=O)OCc1ccc2c(c1OC)C(=O)N(C1CCC(=O)NC1=O)C2 (stereo not shown) [Example 49]

>  <assayedTarget>
Cyclin E1 (Homo sapiens, UniProt P24864+Q96SW2)

>  <val>
>181

$$$$
>  <compound>
O=C1CCC(N2Cc3ccc(COC(=O)Nc4ccc(Oc5cccc(F)c5)cc4)c(Oc4ccccc4)c3C2=O)C(=O)N1 (stereo not shown) [Example 64]

>  <assayedTarget>
Cyclin E1 (Homo sapiens, UniProt P24864+Q96SW2)

>  <val>
>105

$$$$

[in] Lab note: need Ratio of GSPT1 DC50/Cyclin E1 DC50 for O=C1CCC(N2Cc3ccc(COC(=O)Nc4ccc(Oc5ccc(F)cc5)cc4)c(O[C@@H]4CCCOC4)c3C2=O)C(=O)N1 (stereo partly shown) [Example 144] on Cyclin E1 (Homo sapiens, UniProt P24864+Q96SW2), anyone have it?
[out] >133

[in] Would you mind doing COc1c(COC(=O)Nc2ccc(Oc3ccccc3C)cc2)ccc2c1C(=O)N(C1CCC(=O)NC1=O)C2 (stereo not shown) [Example 101] as well?
[out] >194

[in] Repeat with COc1c(COC(=O)Nc2ccc(Oc3cccc(F)c3F)cc2F)ccc2c1C(=O)N(C1CCC(=O)NC1=O)C2 (stereo not shown) [Example 22]
[out] 431

[in] For CC(C)(O)COc1c(COC(=O)Nc2ccc(Oc3ccc(F)cc3)cc2F)ccc2c1C(=O)N(C1CCC(=O)NC1=O)C2 (stereo not shown) [Example 162] then?
[out] >521

[in] Can you handle O=C1CCC(N2Cc3ccc(COC(=O)Nc4ccc(Oc5ccc(F)c(F)c5)cc4F)c(O[C@@H]4CCCOC4)c3C2=O)C(=O)N1 (stereo partly shown) [Example 146] next?
[out] >296

[in] Now give it for COc1cc(Oc2ccc(F)cc2)ccc1NC(=O)OCc1ccc2c(c1OC)C(=O)N(C1CCC(=O)NC1=O)C2 (stereo not shown) [Example 37] too.
[out] >131

[in] Same lookup for COc1c(COC(=O)Nc2ccc(Cc3ccc(F)c(F)c3)cc2C)ccc2c1C(=O)N(C1CCC(=O)NC1=O)C2 (stereo not shown) [Example 18] , please.
[out] >157

[in] And then COc1c(COC(=O)Nc2ccc(Oc3ccc4sccc4c3)cc2)ccc2c1C(=O)N(C1CCC(=O)NC1=O)C2 (stereo not shown) [Example 114] , what is it?
[out] >50

====

assayedTarget: Cyclin E1 (Homo sapiens, UniProt P24864+Q96SW2)
methodSummary: Cyclin E1 Cellular Degradation Assay (MSD)
Type: cell-based
Design: endogenous in cells; host or cells: OVCAR3
conditionLabel: Cyclin E1 cellular degradation, maximum degradation
experimentalEndpoint: Dmax (%)
Numbers only here, please. The scale is %.

>  <compound>
CCOc1c(COC(=O)Nc2ccc(Oc3ccc(F)c(F)c3)cc2)ccc2c1C(=O)N(C1CCC(=O)NC1=O)C2 (centres unmarked)

>  <valueUnit>
%

>  <Dmax>
109

$$$$

[in] Fill in the blank: the reported Dmax of COc1cc(Oc2cccc(F)c2)ccc1NC(=O)OCc1ccc2c(c1OC)C(=O)N(C1CCC(=O)NC1=O)C2 (centres unmarked) is ____.
[out] 111

[in] And COc1c(COC(=O)Nc2ccc(Oc3ccc(F)c(F)c3)cc2F)ccc2c1C(=O)N(C1CCC(=O)NC1=O)C2 (centres unmarked) ?
[out] 105

[in] What do you have for COc1c(COC(=O)Nc2ccc(Oc3ccc(F)c(F)c3)cc2C)ccc2c1C(=O)N(C1CCC(=O)NC1=O)C2 (centres unmarked) ?
[out] 107

[in] What do we get for COc1c(COC(=O)Nc2ccc(Oc3ccc(F)cc3Cl)cc2)ccc2c1C(=O)N(C1CCC(=O)NC1=O)C2 (centres unmarked) ?
[out] 108

====

assayedTarget: Cyclin E1 (Homo sapiens, UniProt P24864+Q96SW2)
methodSummary: Cyclin E1 Cellular Degradation Assay (MSD)
Assay type: cell-based
Parameters: endogenous in cells; host or cells: OVCAR3
conditionLabel: Cyclin E1 cellular degradation, maximum degradation
experimentalEndpoint: Dmax (%)
Value expressed in %; do not type the unit.

Example entries begin here.
>  <molecule>
CC(C)(O)COc1c(COC(=O)Nc2ccc(Oc3ccc(F)c(F)c3)cc2)ccc2c1C(=O)N(C1CCC(=O)NC1=O)C2 (centres unmarked)

>  <experimentalEndpoint>
Dmax

>  <valueUnit>
%

>  <val>
101

$$$$
>  <molecule>
COc1c(COC(=O)Nc2ccc(Oc3ccccc3C3CC3)cc2)ccc2c1C(=O)N(C1CCC(=O)NC1=O)C2 (centres unmarked)

>  <experimentalEndpoint>
Dmax

>  <valueUnit>
%

>  <val>
100

$$$$
>  <molecule>
COc1cc(Oc2ccc(F)c(F)c2)ccc1NC(=O)OCc1ccc2c(c1OC)C(=O)N(C1CCC(=O)NC1=O)C2 (centres unmarked)

>  <experimentalEndpoint>
Dmax

>  <valueUnit>
%

>  <val>
101

$$$$

[in] Query: Dmax; subject: COc1c(COC(=O)Nc2ccc(Oc3cc(F)c(F)cc3F)cc2C)ccc2c1C(=O)N(C1CCC(=O)NC1=O)C2 (centres unmarked)
[out] 112

[in] Would you kindly repeat that for COc1c(COC(=O)Nc2ccc(Oc3cc(F)c(F)cc3C)cc2)ccc2c1C(=O)N(C1CCC(=O)NC1=O)C2 (centres unmarked) ?
[out] 113

====

In this section, each of the molecules is paired with its reported Dmax.
assayedTarget: GSPT1 (Homo sapiens, UniProt P15170+Q96SW2)
Sequence (P15170 whole entry): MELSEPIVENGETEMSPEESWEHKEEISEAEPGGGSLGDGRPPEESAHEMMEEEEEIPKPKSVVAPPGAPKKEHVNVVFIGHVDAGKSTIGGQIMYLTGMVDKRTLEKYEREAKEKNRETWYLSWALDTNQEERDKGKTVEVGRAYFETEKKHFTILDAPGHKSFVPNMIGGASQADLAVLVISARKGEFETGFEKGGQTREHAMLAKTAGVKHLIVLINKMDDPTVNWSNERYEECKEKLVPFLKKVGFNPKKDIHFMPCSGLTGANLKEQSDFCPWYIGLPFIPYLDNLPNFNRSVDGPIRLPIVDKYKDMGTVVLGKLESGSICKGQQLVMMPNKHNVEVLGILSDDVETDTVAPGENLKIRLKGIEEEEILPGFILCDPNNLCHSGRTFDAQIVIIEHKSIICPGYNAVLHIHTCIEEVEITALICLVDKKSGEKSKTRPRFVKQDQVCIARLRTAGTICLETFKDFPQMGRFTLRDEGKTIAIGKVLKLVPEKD
Sequence (Q96SW2 whole entry): as the sequence (Q96SW2 whole entry) above
Sequence (Q16531 whole entry partner): as the sequence (Q16531 whole entry partner) above
methodSummary: GSPT1 Cellular Degradation Assay (DF15-GSPT1-ePL)
Assay type: cell-based
Parameters: expressed in transfected cells
conditionLabel: DF15-GSPT1-ePL cells, 20 hours
Lab book: enter the figure in %, no units written.

Examples with their reported Dmax follow.
>  <molecule>
CC(C)Oc1c(COC(=O)Nc2ccc(Oc3ccc(F)cc3)cc2)ccc2c1C(=O)N(C1CCC(=O)NC1=O)C2 (stereo not shown)

>  <Dmax [%]>
48

$$$$
>  <molecule>
O=C1CCC(N2Cc3ccc(COC(=O)Nc4ccc(Oc5ccc(F)cc5)cc4F)c(OC4CCOCC4)c3C2=O)C(=O)N1 (stereo not shown)

>  <Dmax [%]>
5

$$$$
>  <molecule>
CCOc1c(COC(=O)Nc2ccc(Oc3cccc(Cl)c3)cc2)ccc2c1C(=O)N(C1CCC(=O)NC1=O)C2 (stereo not shown)

>  <Dmax [%]>
22

$$$$

Now examine the next entry.
[in] Could you tell me which Dmax is on file for COc1c(COC(=O)Nc2ccc(Oc3ccccc3C(F)F)cc2F)ccc2c1C(=O)N(C1CCC(=O)NC1=O)C2 (stereo not shown) ?
[out] 33

====

Measured Ratio of GSPT1 DC50/Cyclin E1 DC50 by item
assayedTarget: Cyclin E1 (Homo sapiens, UniProt P24864+Q96SW2)
methodSummary: Cyclin E1 Cellular Degradation Assay (MSD)
Format: cell-based
Parameters: endogenous in cells; host or cells: OVCAR3
conditionLabel: selectivity for degradation of Cyclin E1 over GSPT1

Observe how each entry below is paired with its result.
>  <molecule>
O=C1CCC(N2Cc3ccc(COC(=O)Nc4ccc(Oc5cccc(F)c5F)cc4)c(Oc4ccccc4)c3C2=O)C(=O)N1 (centres unmarked)

>  <Ratio of GSPT1 DC50/Cyclin E1 DC50>
>78

$$$$
>  <molecule>
COc1c(COC(=O)Nc2ccc(Oc3ccc(F)c(F)c3)cc2)ccc2c1C(=O)N(C1CCC(=O)NC1=O)C2 (centres unmarked)

>  <Ratio of GSPT1 DC50/Cyclin E1 DC50>
>70

$$$$
>  <molecule>
O=C1CCC(N2Cc3ccc(COC(=O)Nc4ccc(Oc5ccccc5Cl)cc4)c(OC4CCOCC4)c3C2=O)C(=O)N1 (centres unmarked)

>  <Ratio of GSPT1 DC50/Cyclin E1 DC50>
>450

$$$$
>  <molecule>
O=C1CCC(N2Cc3ccc(COC(=O)Nc4ccc(Oc5ccc(F)cc5)cc4F)c(OC4CCOCC4)c3C2=O)C(=O)N1 (centres unmarked)

>  <Ratio of GSPT1 DC50/Cyclin E1 DC50>
>847

$$$$
>  <molecule>
COc1c(COC(=O)Nc2ccc(Oc3ccc(F)cc3)cc2F)ccc2c1C(=O)N(C1CCC(=O)NC1=O)C2 (centres unmarked)

>  <Ratio of GSPT1 DC50/Cyclin E1 DC50>
>127

$$$$
>  <molecule>
CC(C)Oc1c(COC(=O)Nc2ccc(Oc3cccc(Cl)c3)cc2)ccc2c1C(=O)N(C1CCC(=O)NC1=O)C2 (centres unmarked)

>  <Ratio of GSPT1 DC50/Cyclin E1 DC50>
>100

$$$$
>  <molecule>
O=C1CCC(N2Cc3ccc(COC(=O)Nc4ccc(Oc5ccc(F)c(F)c5)cc4)c(O[C@H]4CC[C@H](O)CC4)c3C2=O)C(=O)N1 (some centres unmarked)

>  <Ratio of GSPT1 DC50/Cyclin E1 DC50>
>160

$$$$
>  <molecule>
COc1c(COC(=O)Nc2ccc(Oc3ccc(F)c(C)c3)cc2)ccc2c1C(=O)N(C1CCC(=O)NC1=O)C2 (centres unmarked)

>  <Ratio of GSPT1 DC50/Cyclin E1 DC50>
>109

$$$$

[in] State the recorded Ratio of GSPT1 DC50/Cyclin E1 DC50 for this entry: O=C1CCC(N2Cc3ccc(COC(=O)Nc4ccc(Oc5ccc(F)c(F)c5)cc4F)c(O[C@@H]4CCOC4)c3C2=O)C(=O)N1 (some centres unmarked)
[out] >95

[in] What about this molecule? COc1c(COC(=O)Nc2ccc(Oc3cccc(F)c3)cc2)ccc2c1C(=O)N(C1CCC(=O)NC1=O)C2 (centres unmarked)
[out] >355

[in] Likewise for COc1c(COC(=O)Nc2ccc(Oc3ccc(F)c(C)c3)cc2C)ccc2c1C(=O)N(C1CCC(=O)NC1=O)C2 (centres unmarked) ?
[out] >43
